System: A549
Assay: Tumor cell line inhibition, A549
Assay type: cell-based
Settings: Homo sapiens
Experimental Readout: IC50 (µM)

I: COc1ccc(COC(=O)NC2(COc3cc4nccc(Oc5ccc(NC(=O)C6(C(=O)Nc7ccc(F)c(F)c7)CC6)c(F)c5)c4cc3OC)CC2)cc1
II: COc1cc2c(Oc3ccc(N(C(=O)C4(C(N)=O)CC4)c4ccc(F)cc4)cc3F)ccnc2cc1OCC1(NC2CCOCC2)CC1
III: COc1cc2c(Oc3ccc(N(C(=O)C4(C(N)=O)CC4)c4ccccc4)c(F)c3)ccnc2cc1OCC1(N)CC1
Sort the entries above by IC50, smallest first. As an answer, provide the labels arranged in the order called for.
II, III, I

====

Tested on: A549
Test: Tumor cell line inhibition, A549
Assay type: cell-based
Details: Homo sapiens
Experimental Readout: IC50 (nM)

I: COc1ccc(COC(=O)NC2(COc3cc4nccc(Oc5ccc(NC(=O)C6(C(=O)Nc7ccccc7)CC6)cc5F)c4cc3OC)CC2)cc1
II: COc1cc2c(Oc3ccc(N(C(=O)C4(C(N)=O)CC4)c4ccc(F)c(F)c4)c(F)c3)ccnc2cc1OCC1(NCC2CC2)CC1
III: COc1cc2c(Oc3ccc(N(C(=O)C4(C(N)=O)CC4)c4ccc(F)c(F)c4)c(F)c3)ccnc2cc1OCC1(NC2CCOCC2)CC1
Rank the listed compounds according to IC50, from the largest value downward. As an answer, provide the labels arranged in the order called for.
I, III, II

====

Tested on: SHG44
Test: Tumor cell line inhibition, SHG44
Format: cell-based
Conditions: SHG-44
Experimental Readout: IC50 (µM)

P: COc1ccc(COC(=O)NC2(COc3cc4nccc(Oc5ccc(NC(=O)C6(C(=O)Nc7ccc(F)c(F)c7)CC6)c(F)c5)c4cc3OC)CC2)cc1
Q: COc1cc2c(Oc3ccc(N(C(=O)C4(C(N)=O)CC4)c4ccc(F)cc4)cc3F)ccnc2cc1OCC1(NC2CCOCC2)CC1
Min IC50? P | Q Your answer should be the label attached to the chosen record.
Q
(Q: 0.199 µM, P: 39.1 µM)

====

Tested on: PC-3M
Assay: Tumor cell line inhibition, PC-3M
Assay type: cell-based
Details: Homo sapiens; PC-3M tumor cell line
pIC50: −log10 of the molar value.
Experimental Readout: pIC50

Here are 3 compounds together with their reported answers.
smiles_str=COc1ccc(COC(=O)NC2(COc3cc4nccc(Oc5ccc(NC(=O)C6(C(=O)Nc7ccc(F)c(F)c7)CC6)c(F)c5)c4cc3OC)CC2)cc1 experimental_readout=pIC50 recorded_measurement=4.29
smiles_str=COc1cc2c(Oc3ccc(N(C(=O)C4(C(N)=O)CC4)c4ccc(F)c(F)c4)c(F)c3)ccnc2cc1OCC1(NCC2CC2)CC1 experimental_readout=pIC50 recorded_measurement=4.79
smiles_str=COc1cc2c(Oc3ccc(N(C(=O)C4(C(N)=O)CC4)c4ccc(F)cc4)cc3F)ccnc2cc1OCC1(NC2CCOCC2)CC1 experimental_readout=pIC50 recorded_measurement=5.31

a: COc1cc2c(Oc3ccc(N(C(=O)C4(C(N)=O)CC4)c4ccc(F)c(F)c4)c(F)c3)ccnc2cc1OCC1(NC2CCOCC2)CC1
b: COc1cc2c(Oc3ccc(N(C(=O)C4(C(N)=O)CC4)c4ccccc4)c(F)c3)ccnc2cc1OCC1(N)CC1
c: COc1ccc(COC(=O)NC2(COc3cc4nccc(Oc5ccc(NC(=O)C6(C(=O)Nc7ccccc7)CC6)cc5F)c4cc3OC)CC2)cc1
Descending sort on pIC50 required. As an answer, provide the labels arranged in the order called for.
a, b, c
(a: 5.22, b: 4.90, c: 4.27)
